Where do the numbers come from? From patent US20240400654A1.

So I've got a bunch of binders here, and I need their OD450 nm values.
- target.entity: HRgpA-6H (Porphyromonas gingivalis) (UniProt P28784)
- method.description: ELISA, FASEBA screening, coated HRgpA-6H 0.0625 ug/ml
Write the number on its own, no unit after it.

The measured OD450 nm associated with KB001 parental mouse Fab FASEBA variant VH Y106H (Fab, V domains shown) VH: EVQLKQSGPGLVAPSQSLSITCTVSGFSLSIYSVHWVRQPPGKGLEWLGMIWGGGSSDYNSALKSRLSISKDNSKSQVFLKMNSLQTDDTAMYYCARNGNFYAMDHWGQGTSVTVSS VL: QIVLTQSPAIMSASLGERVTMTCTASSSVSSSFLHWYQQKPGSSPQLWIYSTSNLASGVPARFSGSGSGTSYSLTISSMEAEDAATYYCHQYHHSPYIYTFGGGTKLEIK reads 0.722

The measured OD450 nm associated with KB001 parental mouse Fab FASEBA variant VH F101L (Fab, V domains shown) VH: EVQLKQSGPGLVAPSQSLSITCTVSGFSLSIYSVHWVRQPPGKGLEWLGMIWGGGSSDYNSALKSRLSISKDNSKSQVFLKMNSLQTDDTAMYYCARNGNLYAMDYWGQGTSVTVSS VL: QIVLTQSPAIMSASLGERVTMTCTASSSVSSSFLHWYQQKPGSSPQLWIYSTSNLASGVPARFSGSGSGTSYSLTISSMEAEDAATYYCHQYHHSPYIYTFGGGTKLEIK reads 0.681

The measured OD450 nm associated with KB001 parental mouse Fab FASEBA variant VH G99Y (Fab, V domains shown) VH: EVQLKQSGPGLVAPSQSLSITCTVSGFSLSIYSVHWVRQPPGKGLEWLGMIWGGGSSDYNSALKSRLSISKDNSKSQVFLKMNSLQTDDTAMYYCARNYNFYAMDYWGQGTSVTVSS VL: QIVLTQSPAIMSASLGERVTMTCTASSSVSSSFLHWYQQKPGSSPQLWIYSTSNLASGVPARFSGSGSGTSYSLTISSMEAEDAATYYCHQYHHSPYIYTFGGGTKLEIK reads 0.769

The measured OD450 nm associated with KB001 parental mouse Fab FASEBA variant VH Y106D (Fab, V domains shown) VH: EVQLKQSGPGLVAPSQSLSITCTVSGFSLSIYSVHWVRQPPGKGLEWLGMIWGGGSSDYNSALKSRLSISKDNSKSQVFLKMNSLQTDDTAMYYCARNGNFYAMDDWGQGTSVTVSS VL: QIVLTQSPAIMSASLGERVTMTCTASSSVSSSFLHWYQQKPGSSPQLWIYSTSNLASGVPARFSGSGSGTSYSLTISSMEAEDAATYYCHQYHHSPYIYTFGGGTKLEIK reads 0.675

The measured OD450 nm associated with KB001 parental mouse Fab FASEBA variant VH N100F (Fab, V domains shown) VH: EVQLKQSGPGLVAPSQSLSITCTVSGFSLSIYSVHWVRQPPGKGLEWLGMIWGGGSSDYNSALKSRLSISKDNSKSQVFLKMNSLQTDDTAMYYCARNGFFYAMDYWGQGTSVTVSS VL: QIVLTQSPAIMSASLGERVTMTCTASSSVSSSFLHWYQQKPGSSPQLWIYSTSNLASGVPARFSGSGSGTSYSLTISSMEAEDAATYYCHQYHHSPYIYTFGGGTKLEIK reads 0.779

The measured OD450 nm associated with KB001 parental mouse Fab FASEBA variant VH Y106Q (Fab, V domains shown) VH: EVQLKQSGPGLVAPSQSLSITCTVSGFSLSIYSVHWVRQPPGKGLEWLGMIWGGGSSDYNSALKSRLSISKDNSKSQVFLKMNSLQTDDTAMYYCARNGNFYAMDQWGQGTSVTVSS VL: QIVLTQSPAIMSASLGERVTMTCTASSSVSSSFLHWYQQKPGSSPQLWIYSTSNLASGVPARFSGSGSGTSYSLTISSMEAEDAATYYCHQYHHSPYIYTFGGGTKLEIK reads 0.768

The measured OD450 nm associated with KB001 parental mouse Fab FASEBA variant VH S65T (Fab, V domains shown) VH: EVQLKQSGPGLVAPSQSLSITCTVSGFSLSIYSVHWVRQPPGKGLEWLGMIWGGGSSDYNSALKTRLSISKDNSKSQVFLKMNSLQTDDTAMYYCARNGNFYAMDYWGQGTSVTVSS VL: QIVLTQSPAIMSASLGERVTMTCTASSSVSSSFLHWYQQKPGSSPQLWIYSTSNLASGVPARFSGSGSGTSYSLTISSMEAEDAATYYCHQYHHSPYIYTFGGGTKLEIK reads 0.759

The measured OD450 nm associated with KB001 parental mouse Fab FASEBA variant VH A103K (Fab, V domains shown) VH: EVQLKQSGPGLVAPSQSLSITCTVSGFSLSIYSVHWVRQPPGKGLEWLGMIWGGGSSDYNSALKSRLSISKDNSKSQVFLKMNSLQTDDTAMYYCARNGNFYKMDYWGQGTSVTVSS VL: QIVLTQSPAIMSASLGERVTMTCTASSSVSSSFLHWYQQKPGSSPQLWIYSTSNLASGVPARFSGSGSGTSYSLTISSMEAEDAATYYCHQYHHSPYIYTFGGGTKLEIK reads 0.723

The measured OD450 nm associated with KB001 parental mouse Fab FASEBA variant VH S65F (Fab, V domains shown) VH: EVQLKQSGPGLVAPSQSLSITCTVSGFSLSIYSVHWVRQPPGKGLEWLGMIWGGGSSDYNSALKFRLSISKDNSKSQVFLKMNSLQTDDTAMYYCARNGNFYAMDYWGQGTSVTVSS VL: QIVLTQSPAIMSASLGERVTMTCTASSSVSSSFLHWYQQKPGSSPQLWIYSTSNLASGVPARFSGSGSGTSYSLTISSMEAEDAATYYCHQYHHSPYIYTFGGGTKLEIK reads 0.74

The measured OD450 nm associated with KB001 parental mouse Fab FASEBA variant VH A103M (Fab, V domains shown) VH: EVQLKQSGPGLVAPSQSLSITCTVSGFSLSIYSVHWVRQPPGKGLEWLGMIWGGGSSDYNSALKSRLSISKDNSKSQVFLKMNSLQTDDTAMYYCARNGNFYMMDYWGQGTSVTVSS VL: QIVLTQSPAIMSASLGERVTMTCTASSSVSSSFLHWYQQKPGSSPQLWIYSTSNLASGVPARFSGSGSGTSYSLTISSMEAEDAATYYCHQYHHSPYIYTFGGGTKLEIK reads 0.811

The measured OD450 nm associated with KB001 parental mouse Fab FASEBA variant VH A103C (Fab, V domains shown) VH: EVQLKQSGPGLVAPSQSLSITCTVSGFSLSIYSVHWVRQPPGKGLEWLGMIWGGGSSDYNSALKSRLSISKDNSKSQVFLKMNSLQTDDTAMYYCARNGNFYCMDYWGQGTSVTVSS VL: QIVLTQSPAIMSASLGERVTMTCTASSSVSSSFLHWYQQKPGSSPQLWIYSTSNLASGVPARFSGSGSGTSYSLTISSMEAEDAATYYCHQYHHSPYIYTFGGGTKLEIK reads 0.77
